- system_tested: HDAC2 (Homo sapiens)
- Construct: purchased BPS Bioscience 50002
- Sequence (Q92769 whole entry): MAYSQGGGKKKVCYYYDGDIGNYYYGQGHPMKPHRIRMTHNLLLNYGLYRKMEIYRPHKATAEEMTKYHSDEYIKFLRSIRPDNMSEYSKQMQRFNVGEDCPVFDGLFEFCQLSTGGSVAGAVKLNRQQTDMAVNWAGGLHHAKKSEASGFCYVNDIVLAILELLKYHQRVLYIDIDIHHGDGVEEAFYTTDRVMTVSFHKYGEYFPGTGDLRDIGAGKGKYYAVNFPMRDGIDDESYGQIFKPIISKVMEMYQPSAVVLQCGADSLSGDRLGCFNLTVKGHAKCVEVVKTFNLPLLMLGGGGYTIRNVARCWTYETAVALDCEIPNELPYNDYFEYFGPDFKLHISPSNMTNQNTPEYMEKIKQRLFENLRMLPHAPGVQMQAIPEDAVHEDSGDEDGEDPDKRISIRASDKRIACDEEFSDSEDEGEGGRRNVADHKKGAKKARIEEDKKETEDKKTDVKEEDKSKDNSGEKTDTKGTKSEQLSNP
- experiment: HDAC-Glo I/II enzymatic assay, HDAC2
- Type: biochemical
- cond: read-out: HDAC2 pIC50 (converted)
attribute_measured: IC50 (µM)

Please review the following examples before continuing.
INSERT INTO measurements (compound, endpoint_result) VALUES
  ('O=C(NO)c1ccc(Cc2c[nH]c3ccc(C(=O)NO)cc23)cc1 [Compound 3d]', 4.68),
  ('CN(C)Cc1cn(Cc2ccc(C(=O)NO)cc2)c2cc(C(=O)NO)ccc12 [Compound 3b]', 5.37),
  ('CN(C)Cc1nn(Cc2ccc(C(=O)NO)cc2)c2cc(C(=O)NO)ccc12 [Compound 3g]', 9.55);

(a) O=C(NO)c1ccc(Cn2ccc3ccc(C(=O)NO)cc32)cc1 [Compound 3a]
(b) CN(C)CCn1cc(Cc2ccc(C(=O)NO)cc2)c2cc(C(=O)NO)ccc21 [Compound 3e]
(c) O=C(NO)c1ccc(Cn2ncc3ccc(C(=O)NO)cc32)cc1 [Compound 3f]
(d) CN1CCc2c(c3ccc(C(=O)NO)cc3n2Cc2ccc(C(=O)NO)cc2)C1 [Compound 3c]
**Q:** Could you please sort these 4 entries by IC50 from high to low? Please reply with the labels ordered as requested. Many thanks.
**A:** b, d, a, c
(b: 7.08 µM, d: 4.17 µM, a: 2.24 µM, c: 0.724 µM)

---

- system_tested: HDAC3/NcoR2 complex (Homo sapiens, UniProt O15379)
- Construct: purchased BPS Bioscience 50003
- Sequence (O15379 whole entry): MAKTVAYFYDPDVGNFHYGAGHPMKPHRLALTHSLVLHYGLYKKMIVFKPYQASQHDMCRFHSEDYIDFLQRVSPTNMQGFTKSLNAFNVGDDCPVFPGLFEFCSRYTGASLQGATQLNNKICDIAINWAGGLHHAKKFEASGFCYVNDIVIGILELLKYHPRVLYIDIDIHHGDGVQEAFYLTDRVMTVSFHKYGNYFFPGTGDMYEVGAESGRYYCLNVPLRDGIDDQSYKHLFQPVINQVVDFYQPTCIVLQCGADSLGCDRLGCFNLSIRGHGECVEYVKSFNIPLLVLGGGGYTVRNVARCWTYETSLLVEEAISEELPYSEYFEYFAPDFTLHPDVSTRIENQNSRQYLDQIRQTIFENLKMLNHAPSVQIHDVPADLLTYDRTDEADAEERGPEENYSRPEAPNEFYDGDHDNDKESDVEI
- Sequence (Q9Y618 395-489 partner limits assumed): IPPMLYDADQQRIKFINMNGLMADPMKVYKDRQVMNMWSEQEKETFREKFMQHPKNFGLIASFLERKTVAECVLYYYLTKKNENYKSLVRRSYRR
- experiment: HDAC-Glo I/II enzymatic assay, HDAC3
- Format: biochemical
- cond: read-out: HDAC3 pIC50 (converted)
attribute_measured: IC50 (µM)

INSERT INTO results (sample_smiles, measure_unit, endpoint_result) VALUES
  ('O=C(NO)c1ccc(Cc2c[nH]c3ccc(C(=O)NO)cc23)cc1', 'µM', 6.46);

(1) CN1CCc2c(c3ccc(C(=O)NO)cc3n2Cc2ccc(C(=O)NO)cc2)C1
(2) O=C(NO)c1ccc(Cn2ncc3ccc(C(=O)NO)cc32)cc1
**Q:** Could you kindly indicate whether 1 or 2 has the higher IC50 value? Please indicate the selected item by its label.
**A:** 1
(1: 13.5 µM, 2: 1.32 µM)

---

- system_tested: HDAC1 (Homo sapiens, UniProt Q13547)
- Construct: purchased BPS Bioscience 50051
- Sequence (Q13547 whole entry): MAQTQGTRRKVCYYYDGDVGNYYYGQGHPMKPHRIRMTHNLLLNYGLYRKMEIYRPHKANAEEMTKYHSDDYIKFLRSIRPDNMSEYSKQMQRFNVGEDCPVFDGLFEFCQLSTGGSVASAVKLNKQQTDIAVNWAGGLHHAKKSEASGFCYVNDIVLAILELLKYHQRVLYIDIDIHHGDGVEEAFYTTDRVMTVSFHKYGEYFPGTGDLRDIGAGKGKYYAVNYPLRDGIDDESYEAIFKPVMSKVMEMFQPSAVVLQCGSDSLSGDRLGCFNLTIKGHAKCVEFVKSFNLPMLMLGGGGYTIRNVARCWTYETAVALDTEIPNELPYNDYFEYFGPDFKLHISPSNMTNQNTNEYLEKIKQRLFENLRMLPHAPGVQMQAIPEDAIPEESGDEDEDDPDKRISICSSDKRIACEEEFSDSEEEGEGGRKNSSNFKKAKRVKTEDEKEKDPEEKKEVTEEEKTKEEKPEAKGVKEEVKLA
- experiment: HDAC-Glo I/II enzymatic assay, HDAC1
- Format: biochemical
- cond: read-out: HDAC1 pIC50 (converted)
attribute_measured: IC50 (nM)

INSERT INTO results (compound, endpoint_result) VALUES
  ('O=C(NO)c1ccc(Cn2ccc3ccc(C(=O)NO)cc32)cc1 [Compound 3a]', 263),
  ('CN1CCc2c(c3ccc(C(=O)NO)cc3n2Cc2ccc(C(=O)NO)cc2)C1 [Compound 3c]', 501),
  ('O=C(NO)c1ccc(Cc2c[nH]c3ccc(C(=O)NO)cc23)cc1 [Compound 3d]', 525);

(I) CN(C)Cc1nn(Cc2ccc(C(=O)NO)cc2)c2cc(C(=O)NO)ccc12 [Compound 3g]
(II) O=C(NO)c1ccc(Cn2ncc3ccc(C(=O)NO)cc32)cc1 [Compound 3f]
**Q:** Pick one, I or II : lowest reported IC50. Identify your pick by its label.
**A:** II
(II: 87.1 nM, I: 661 nM)

---

- system_tested: HDAC10 (Homo sapiens, UniProt Q969S8)
- Sequence (Q969S8 whole entry): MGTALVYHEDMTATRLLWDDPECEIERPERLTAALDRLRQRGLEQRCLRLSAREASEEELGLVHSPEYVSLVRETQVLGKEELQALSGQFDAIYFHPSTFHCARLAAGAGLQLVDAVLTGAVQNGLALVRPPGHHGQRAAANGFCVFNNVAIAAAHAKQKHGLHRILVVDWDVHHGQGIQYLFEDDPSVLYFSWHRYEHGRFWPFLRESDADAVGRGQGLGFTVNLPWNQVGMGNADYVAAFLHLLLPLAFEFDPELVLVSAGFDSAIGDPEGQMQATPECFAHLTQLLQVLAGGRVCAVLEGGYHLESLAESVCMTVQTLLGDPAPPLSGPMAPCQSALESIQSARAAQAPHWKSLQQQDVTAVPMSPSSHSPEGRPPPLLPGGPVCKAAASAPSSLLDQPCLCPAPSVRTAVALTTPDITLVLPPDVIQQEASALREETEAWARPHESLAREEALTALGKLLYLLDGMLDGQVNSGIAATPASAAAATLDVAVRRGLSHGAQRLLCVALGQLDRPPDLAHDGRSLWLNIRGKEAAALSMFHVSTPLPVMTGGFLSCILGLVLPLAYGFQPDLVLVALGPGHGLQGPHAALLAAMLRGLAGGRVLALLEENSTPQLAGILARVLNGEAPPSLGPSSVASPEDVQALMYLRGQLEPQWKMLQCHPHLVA
- experiment: ligand displacement TR-FRET assay, HDAC10
- Format: binding
- Design: host or cells: Sf21 insect cells (baculovirus)
- cond: ligand-displacement FRET assay; read-out: HDAC10 pIC50 (converted)
- Procedure: Expression and purification of TwinStrepII‐GST‐HDAC10: A synthetic gene encoding TwinStrepII‐GST‐HDAC10 (human) was ordered from GeneArt (Thermo Fischer Scientific) and subcloned into the pFastBac1 vector. The resulting construct was used for transposition in E. coli DH10EMBacY cells. […] The TR‐FRET measurements of the monohydroxamic acids in this manuscript were measured in the original assay format, which is described directly below this paragraph. […]
attribute_measured: IC50 (nM)

INSERT INTO results (sample_smiles, measure_unit, endpoint_result) VALUES
  ('CN(C)Cc1nn(Cc2ccc(C(=O)NO)cc2)c2cc(C(=O)NO)ccc12', 'nM', 3.98);

(a) COc1ccc(Cc2cn(CCN(C)C)c3ccc(C(=O)NO)cc23)cc1
(b) CN(C)CCn1cc(Cc2ccc(C(=O)NO)cc2)c2cc(C(=O)NO)ccc21
(c) O=C(NO)c1ccc(Cn2ncc3ccccc32)cc1
(d) COc1ccc(Cn2ncc3ccc(C(=O)NO)cc32)cc1
**Q:** List from greatest to least IC50. Put the labels in the order asked and list them.
**A:** d, a, c, b
(d: 19100 nM, a: 661 nM, c: 234 nM, b: 3.02 nM)

---

- system_tested: HDAC10 (Homo sapiens, UniProt Q969S8)
- experiment: ligand displacement TR-FRET assay, HDAC10
- Format: binding
- Design: host or cells: Sf21 insect cells (baculovirus)
- cond: ligand-displacement FRET assay; read-out: HDAC10 pIC50 (converted)
attribute_measured: IC50 (nM)

Previously resolved entries follow.
INSERT INTO results (compound, attribute_measured, endpoint_result) VALUES
  ('COc1ccc(Cn2c3c(c4ccc(C(=O)NO)cc42)CN(C)CC3)cc1 [Compound 2c]', 'IC50', 6460),
  ('CN1CCc2c(c3ccc(C(=O)NO)cc3n2Cc2ccc(C(=O)NO)cc2)C1 [Compound 3c]', 'IC50', 12.3),
  ('O=C(NO)c1ccc(Cc2c[nH]c3ccccc23)cc1 [Compound 1d]', 'IC50', 27.5);

(A) CN(C)Cc1cn(Cc2ccc(C(=O)NO)cc2)c2ccccc12 [Compound 1b]
(B) O=C(NO)c1ccc(Cc2c[nH]c3ccc(C(=O)NO)cc23)cc1 [Compound 3d]
**Q:** Consider A and B . Which of these has its IC50 at a higher number? State your choice using its label.
**A:** A

(a) CN(C)Cc1nn(Cc2ccc(C(=O)NO)cc2)c2ccccc12 [Compound 1g]
(b) COc1ccc(Cc2c[nH]c3ccc(C(=O)NO)cc23)cc1 [Compound 2d]
**Q:** Form: Entry with minimum IC50 (choose one): a / b Choose, then provide that item's label.
**A:** a
(a: 19.5 nM, b: 3160 nM)

(1) CN(C)Cc1cn(Cc2ccc(C(=O)NO)cc2)c2cc(C(=O)NO)ccc12 [Compound 3b]
(2) O=C(NO)c1ccc(Cn2ccc3ccccc32)cc1 [Compound 1a]
**Q:** Between the two listed entries 1 and 2 , which has its IC50 at the higher number? Identify your selection by its label.
**A:** 2
(2: 66.1 nM, 1: 2.82 nM)

(I) O=C(NO)c1ccc(Cn2ccc3ccc(C(=O)NO)cc32)cc1 [Compound 3a]
(II) COc1ccc(Cn2nc(CN(C)C)c3ccc(C(=O)NO)cc32)cc1 [Compound 2g]
**Q:** // select label with min value of measured IC50 from [ I , II ] Write down the label attached to your selection.
**A:** I

(a) O=C(NO)c1ccc(Cn2ncc3ccc(C(=O)NO)cc32)cc1 [Compound 3f]
(b) COc1ccc(Cn2cc(CN(C)C)c3ccc(C(=O)NO)cc32)cc1 [Compound 2b]
**Q:** I would appreciate it if you could say which entry, a or b , has the lower IC50 value. # answer = label of selected item
**A:** a

---

- system_tested: HDAC6 (Homo sapiens, UniProt Q9UBN7)
- Construct: purchased BPS Bioscience 50006
- Sequence (Q9UBN7 1-1215): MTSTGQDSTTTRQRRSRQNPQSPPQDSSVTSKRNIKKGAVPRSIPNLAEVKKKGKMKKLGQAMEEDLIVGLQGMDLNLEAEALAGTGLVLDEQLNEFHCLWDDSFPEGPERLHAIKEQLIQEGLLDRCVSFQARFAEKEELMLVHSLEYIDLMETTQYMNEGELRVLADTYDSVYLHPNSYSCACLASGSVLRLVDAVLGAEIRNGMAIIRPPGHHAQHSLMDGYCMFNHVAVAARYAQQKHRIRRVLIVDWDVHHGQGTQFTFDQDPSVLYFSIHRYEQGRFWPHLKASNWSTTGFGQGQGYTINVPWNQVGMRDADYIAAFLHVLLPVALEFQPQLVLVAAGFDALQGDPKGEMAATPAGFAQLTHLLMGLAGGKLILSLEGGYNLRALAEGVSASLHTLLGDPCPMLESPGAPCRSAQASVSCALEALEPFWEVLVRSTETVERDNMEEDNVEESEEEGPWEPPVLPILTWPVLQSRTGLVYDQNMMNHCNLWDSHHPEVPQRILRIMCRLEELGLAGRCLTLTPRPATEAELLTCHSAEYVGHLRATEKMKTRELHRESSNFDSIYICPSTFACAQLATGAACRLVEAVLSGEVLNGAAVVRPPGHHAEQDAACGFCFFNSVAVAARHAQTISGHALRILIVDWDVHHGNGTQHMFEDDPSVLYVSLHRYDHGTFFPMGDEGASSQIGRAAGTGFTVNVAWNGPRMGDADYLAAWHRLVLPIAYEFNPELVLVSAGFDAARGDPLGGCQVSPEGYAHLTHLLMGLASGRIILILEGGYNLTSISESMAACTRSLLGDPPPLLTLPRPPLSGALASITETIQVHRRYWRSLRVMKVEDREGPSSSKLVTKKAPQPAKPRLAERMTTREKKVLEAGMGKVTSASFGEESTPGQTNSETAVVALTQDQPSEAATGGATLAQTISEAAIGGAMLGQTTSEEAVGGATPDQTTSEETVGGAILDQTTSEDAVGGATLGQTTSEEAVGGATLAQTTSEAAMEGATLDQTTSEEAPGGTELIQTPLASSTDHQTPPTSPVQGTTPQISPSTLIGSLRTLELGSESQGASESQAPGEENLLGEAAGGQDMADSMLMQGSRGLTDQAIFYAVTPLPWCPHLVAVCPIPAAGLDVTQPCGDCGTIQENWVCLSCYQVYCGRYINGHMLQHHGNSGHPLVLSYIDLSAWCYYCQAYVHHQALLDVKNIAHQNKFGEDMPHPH
- experiment: HDAC-Glo I/II enzymatic assay, HDAC6
- Type: biochemical
- cond: read-out: HDAC6 pIC50 (converted)
attribute_measured: IC50 (µM)

Use these answered entries as a reference point.
INSERT INTO assay_data (compound, endpoint_result) VALUES
  ('CN1CCc2c(c3ccc(C(=O)NO)cc3n2Cc2ccc(C(=O)NO)cc2)C1 [Compound 3c]', 0.0479),
  ('O=C(NO)c1ccc(Cn2ncc3ccc(C(=O)NO)cc32)cc1 [Compound 3f]', 0.0151),
  ('O=C(NO)c1ccc(Cc2c[nH]c3ccc(C(=O)NO)cc23)cc1 [Compound 3d]', 0.0224);

(a) CN(C)Cc1cn(Cc2ccc(C(=O)NO)cc2)c2cc(C(=O)NO)ccc12 [Compound 3b]
(b) CN(C)Cc1nn(Cc2ccc(C(=O)NO)cc2)c2cc(C(=O)NO)ccc12 [Compound 3g]
(c) O=C(NO)c1ccc(Cn2ccc3ccc(C(=O)NO)cc32)cc1 [Compound 3a]
(d) CN(C)CCn1cc(Cc2ccc(C(=O)NO)cc2)c2cc(C(=O)NO)ccc21 [Compound 3e]
**Q:** Let's sort these by IC50, smallest first. Go ahead? Please list each label once, in the requested order.
**A:** c, b, d, a
